biological target: EVASIN4; assay: -; previously described evasin
This listing pairs binders with measured Kd.
endpoint: Kd (nM)

>>> df
                                     binder  endpoint  unittag  valuemeasured
0  CCL18_HUMAN (ligand) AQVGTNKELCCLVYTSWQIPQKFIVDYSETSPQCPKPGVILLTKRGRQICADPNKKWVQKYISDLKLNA        Kd       nM           0.03
1  CCL3_HUMAN (ligand) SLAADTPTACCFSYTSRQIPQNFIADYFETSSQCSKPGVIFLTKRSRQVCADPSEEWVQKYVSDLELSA        Kd       nM           0.06
2  CCL15_HUMAN (ligand) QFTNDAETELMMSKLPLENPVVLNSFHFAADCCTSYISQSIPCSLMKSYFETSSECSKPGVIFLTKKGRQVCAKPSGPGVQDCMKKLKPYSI        Kd       nM           2.31
3  CCL5_HUMAN (ligand) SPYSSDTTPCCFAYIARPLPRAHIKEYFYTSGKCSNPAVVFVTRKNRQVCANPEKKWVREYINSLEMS        Kd       nM           0.09
4  CCL17_HUMAN (ligand) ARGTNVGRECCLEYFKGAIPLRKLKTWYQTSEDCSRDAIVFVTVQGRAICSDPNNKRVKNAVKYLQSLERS        Kd       nM           0.61
5  CCL8_HUMAN (ligand) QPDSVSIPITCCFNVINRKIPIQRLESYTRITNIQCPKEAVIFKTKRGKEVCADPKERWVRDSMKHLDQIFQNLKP        Kd       nM           0.25
6  CCL19_HUMAN (ligand) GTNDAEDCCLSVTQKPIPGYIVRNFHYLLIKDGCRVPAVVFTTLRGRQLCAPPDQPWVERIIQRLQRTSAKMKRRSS        Kd       nM           0.14
7  CCL1_HUMAN (ligand) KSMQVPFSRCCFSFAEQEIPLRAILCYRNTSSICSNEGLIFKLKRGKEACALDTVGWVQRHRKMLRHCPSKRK        Kd       nM            0.2
